# experimental system: T. foetus IMPDH wild-type (Tritrichomonas foetus)
# measurement description: Equilibrium dissociation constant by intrinsic protein fluorescence, wild-type
# Assay type: binding
# condition summary: corrected for non-specific quenching, assay buffer, 25 °C
measure name: Kd (µM)
Note: unit µM is implicit; provide only the numeric part.

I would be grateful if you could share the reported Kd for NC(=O)c1ccc[n+]([C@@H]2O[C@H](COP(=O)([O-])OP(=O)(O)OC[C@H]3O[C@@H](n4cnc5c(N)ncnc54)[C@H](O)[C@@H]3O)[C@@H](O)[C@H]2O)c1 [NAD^+] .
27

###

# experimental system: T. foetus IMPDH R322E (Tritrichomonas foetus, UniProt P50097, R322E)
# measurement description: Equilibrium dissociation constant by intrinsic protein fluorescence, R322E
# condition summary: assay buffer, 25 °C
measure name: pKd
Convention used: pKd is expressed as -log10 of the molar concentration.

If you can, please state the reported pKd value of NC(=O)c1ccc[n+]([C@@H]2O[C@H](COP(=O)([O-])OP(=O)(O)OC[C@H]3O[C@@H](n4cnc5c(N)ncnc54)[C@H](O)[C@@H]3O)[C@@H](O)[C@H]2O)c1 [NAD^+] .
4.43
